# System: compound-treated mice
# TEST NAME: Neuropharmacological assay (SmartCube): behavioral activity signature and minimal effective dose
# Assay type: in vivo
# ASSAY CONTEXT: i.p. 15 min before test, most efficacious dose(s)
READOUT TYPE: CE: cognitive enhancer (probability of activity signature)

> print(dat)
                                   molecule        assay.value
1  Cc1ccc(C)c2c1COC[C@@H]2N (single isomer, unassigned)  ++ (5% ≤ ++ <25%)
2  Cl.NC1COCc2cccc(Cl)c21 (stereo not drawn)  ++ (5% ≤ ++ <25%)
3  CC[C@@H]1OCc2ccc(C)cc2[C@@H]1N (single isomer, unassigned)  ++ (5% ≤ ++ <25%)
4                  Cc1ccc2c(c1)[C@H](N)COC2    + (LOQ ≤ + <5%)
5  CC(C)(C)c1ccc2c(c1)C(N)COC2.Cl (stereo not drawn)  ++ (5% ≤ ++ <25%)
6     NC1COCc2ccc(F)cc21 (stereo not drawn)    + (LOQ ≤ + <5%)
7  COc1ccc2c(c1)[C@@H](N)[C@@H](C)OC2 (single isomer, unassigned)  ++ (5% ≤ ++ <25%)
8         COc1cccc2c1[C@H](N)[C@H](C)OC2.Cl  ++ (5% ≤ ++ <25%)
9  Cl.N[C@H]1c2ccccc2CO[C@@H]1CF (single isomer, unassigned)    + (LOQ ≤ + <5%)

====

# Test system: compound-treated mice
# TEST NAME: Neuropharmacological assay (SmartCube): behavioral activity signature and minimal effective dose
# Assay type: in vivo
# ASSAY CONTEXT: Mus musculus, ip, MED = dose having 50% or more total activity, read-out: Potency: minimal effective dose (MED), binned
Here, each record is paired with measured minimal effective dose data.
READOUT TYPE: minimal effective dose

> print(dat)
                                   compound              tested.on            readout.type     assay.value
1  COc1ccc2c(c1)[C@@H](N)[C@@H](C)OC2 (single isomer, unassigned)  compound-treated mice  minimal effective dose   3 to 10 mg/kg
2        COc1cccc2c1[C@H](N)[C@@H](C)OC2.Cl  compound-treated mice  minimal effective dose  10 to 30 mg/kg
3              C[C@H]1OCc2ccc(F)cc2[C@@H]1N  compound-treated mice  minimal effective dose       < 3 mg/kg
4           C[C@H]1OCc2cccc(F)c2[C@@H]1N.Cl  compound-treated mice  minimal effective dose   3 to 10 mg/kg
5           CC[C@@H]1OCc2ccccc2[C@@H]1NC.Cl  compound-treated mice  minimal effective dose   3 to 10 mg/kg

====

# minimal effective dose values compiled below
# Test system: compound-treated mice
# TEST NAME: Neuropharmacological assay (SmartCube): behavioral activity signature and minimal effective dose
# Assay type: in vivo
# ASSAY CONTEXT: Mus musculus, ip, MED = dose having 50% or more total activity, read-out: Potency: minimal effective dose (MED), binned
READOUT TYPE: minimal effective dose

> print(dat)
                                   molecule            readout.type     assay.value
1  CC(C)[C@@H]1OCc2ccccc2[C@H]1N.Cl (relative stereo) [Example 257]  minimal effective dose   3 to 10 mg/kg
2  C[C@@H]1OCc2cccc(F)c2[C@@H]1N.Cl [Example 217]  minimal effective dose  10 to 30 mg/kg
3  CCN(C)C(=O)Oc1ccc2c(c1)[C@H](N(C)C)[C@H](C)OC2.Cl [Example 287]  minimal effective dose      > 30 mg/kg

====

# System: compound-treated mice
# TEST NAME: Neuropharmacological assay (SmartCube): behavioral activity signature and minimal effective dose
# Assay type: in vivo
# ASSAY CONTEXT: i.p. 15 min before test, most efficacious dose(s)
READOUT TYPE: AG: analgesic (probability of activity signature)

> print(dat)
                                    molecule        assay.value
 1         C[C@@H]1OCc2cccc(Cl)c2[C@@H]1N.Cl  ++ (5% ≤ ++ <25%)
 2          COc1cccc2c1CO[C@@H](C)[C@H]2N.Cl  ++ (5% ≤ ++ <25%)
 3              CCC[C@@H]1OCc2ccccc2[C@@H]1N    + (LOQ ≤ + <5%)
 4  Cc1cccc2c1COC[C@@H]2N (single isomer, unassigned)  ++ (5% ≤ ++ <25%)
 5              Cc1cccc2c1[C@H](N)CO[C@@H]2C    + (LOQ ≤ + <5%)
 6          C[C@@H]1OCc2cccc(F)c2[C@@H]1N.Cl    + (LOQ ≤ + <5%)
 7                   N[C@H]1COCc2cccc(Cl)c21  ++ (5% ≤ ++ <25%)
 8  Cl.NC1COCc2cccc(Cl)c21 (stereo not shown)  ++ (5% ≤ ++ <25%)
 9  CCN(C)C(=O)Oc1ccc2c(c1)[C@H](N)[C@H](C)OC2.Cl    + (LOQ ≤ + <5%)
10    Cl.NC1CCOCc2ccccc21 (stereo not shown)  ++ (5% ≤ ++ <25%)
11               Cc1cccc2c1[C@H](N)CO[C@H]2C  ++ (5% ≤ ++ <25%)
12                  N[C@@H]1COCc2cccc(Cl)c21  ++ (5% ≤ ++ <25%)
13                 Cc1ccc2c(c1)[C@@H](N)COC2  ++ (5% ≤ ++ <25%)
14  N[C@@H]1COCc2ccccc21 (single isomer, unassigned)  ++ (5% ≤ ++ <25%)
15    C[C@H]1OCc2ccc(C(F)(F)F)cc2[C@@H]1N.Cl    + (LOQ ≤ + <5%)
16                 CN[C@@H]1COCc2cccc(Cl)c21  ++ (5% ≤ ++ <25%)
17  CC[C@@H]1OCc2ccccc2[C@H]1N (single isomer, unassigned)  ++ (5% ≤ ++ <25%)
18           CCCN[C@H]1c2ccccc2CO[C@@H]1C.Cl    + (LOQ ≤ + <5%)
19         CC[C@@H]1OCc2ccc(F)cc2[C@@H]1N.Cl    + (LOQ ≤ + <5%)
20  Cc1ccc2c(c1)[C@H](N)[C@@H](C)COC2.Cl (relative stereo)  ++ (5% ≤ ++ <25%)
21  Cc1cc(C)c2c(c1)[C@H](N)COC2 (single isomer, unassigned)    + (LOQ ≤ + <5%)
22         Cc1cccc2c1[C@H](N)[C@@H](C)OC2.Cl  ++ (5% ≤ ++ <25%)
23  CC[C@H]1OCc2ccc(C)cc2[C@@H]1N.Cl (relative stereo)  ++ (5% ≤ ++ <25%)
24           C[C@H]1OCc2c(F)cccc2[C@@H]1N.Cl  ++ (5% ≤ ++ <25%)
25          C[C@H]1OCc2cc(Cl)ccc2[C@@H]1N.Cl  ++ (5% ≤ ++ <25%)
26  Cc1ccc(Cl)c2c1[C@@H](N)COC2 (single isomer, unassigned)    + (LOQ ≤ + <5%)
27           C[C@H]1OCc2ccc(F)cc2[C@@H]1N.Cl  ++ (5% ≤ ++ <25%)
28  Cl.NC1CCOCc2cc(Cl)ccc21 (stereo not shown)  ++ (5% ≤ ++ <25%)
29  COc1cccc2c1C(N)COC2.Cl (stereo not shown)  ++ (5% ≤ ++ <25%)
30  C[C@@H]1OC[C@@H](N)c2ccccc21.Cl (relative stereo)  ++ (5% ≤ ++ <25%)
31            CC(C)C[C@H]1OCc2ccccc2[C@@H]1N  ++ (5% ≤ ++ <25%)
32  C[C@@H]1OCc2ccccc2[C@H]1N.Cl (relative stereo)  ++ (5% ≤ ++ <25%)
33  Cc1cc(Cl)c2c(c1)C(N)COC2.Cl (stereo not shown)  ++ (5% ≤ ++ <25%)
34      Cc1ccc2c(c1C)[C@H](N)[C@@H](C)OC2.Cl  ++ (5% ≤ ++ <25%)
35  Cc1cccc2c1[C@@H](N)COC2 (single isomer, unassigned)  ++ (5% ≤ ++ <25%)
36  CCN(C)C(=O)Oc1ccc2c(c1)CO[C@H](C)[C@H]2N.Cl    + (LOQ ≤ + <5%)
37           Cc1ccc2c(c1)[C@H](N)[C@H](C)OC2  ++ (5% ≤ ++ <25%)
38  COc1ccc2c(c1)[C@@H](N)COC2 (single isomer, unassigned)  ++ (5% ≤ ++ <25%)
39                 CN[C@@H]1COCc2ccc(OC)cc21  ++ (5% ≤ ++ <25%)
